- Test system: Rattus norvegicus
- assay_summary: Analgesic activity in Sprague-Dawley rat assessed as minimal dose for loss of pedal withdrawal reflex at 20 mg/kg/min followed by dose reduction to 6.7 mg/kg/min dosed via infusion
- Format: functional
- test_context: read-out: MED
measured_property: minimal effective dose

compound="CC(C)NC(=O)CCNC1(c2ccccc2Cl)CCCCC1=O (stereo not drawn)" test_system="Rattus norvegicus" result="> 200 mg/kg"
compound="CN(C)C(=O)CCCCNC1(c2ccccc2Cl)CCCCC1=O (stereo not drawn)" test_system="Rattus norvegicus" result="> 200 mg/kg"
compound="COC(=O)CCCCCNC1(c2ccccc2Cl)CCCCC1=O (stereo not drawn)" test_system="Rattus norvegicus" result="> 200 mg/kg"
compound="CCNC(=O)CCNC1(c2ccccc2Cl)CCCCC1=O (stereo not drawn)" test_system="Rattus norvegicus" result="139 mg/kg"
compound="COC(=O)CCCCNC1(c2ccccc2Cl)CCCCC1=O (stereo not drawn)" test_system="Rattus norvegicus" result="44 mg/kg"
compound="CCOC(=O)CCOCCNC1(c2ccccc2Cl)CCCCC1=O (stereo not drawn)" test_system="Rattus norvegicus" result="> 200 mg/kg"
compound="NC(=O)CCNC1(c2ccccc2Cl)CCCCC1=O (stereo not drawn)" test_system="Rattus norvegicus" result="> 200 mg/kg"
compound="CNC(=O)CCNC1(c2ccccc2Cl)CCCCC1=O (stereo not drawn)" test_system="Rattus norvegicus" result="> 200 mg/kg"
